Provide the recorded T/C for the entries that follow.
Test system: L1210 leukemia ip in BDF1 mice, survival T/C
PROTOCOL: NCI In Vivo Anticancer Drug Screen. Data for tumor model L1210 Leukemia (intraperitoneal) in B6D2F1 (BDF1) mice
TEST_SETTINGS: endpoint: mean survival time; dose: 100.0 mg/kg/injection; schedule: Q04DX003 (ip); vehicle: Klucel (hydroxypropylcellulose) (HPC); higher = longer survival
Inconclusive results and toxic doses are left out.

[in] State its T/C on L1210 leukemia ip in BDF1 mice, survival T/C: Cc1ccc(Cl)cc1NC(=O)Nc1ccccc1Cl
[out] 101 % of control

[in] State its T/C on L1210 leukemia ip in BDF1 mice, survival T/C: S=C(Cc1ccccc1)N1CCCCC1
[out] 100 % of control

[in] State its T/C on L1210 leukemia ip in BDF1 mice, survival T/C: O=S(=O)(CCO)c1ccc2ccccc2c1
[out] 101 % of control

[in] State its T/C on L1210 leukemia ip in BDF1 mice, survival T/C: CC(C)NC1(C(N)=O)CCN(Cc2ccccc2)CC1
[out] 93 % of control

[in] State its T/C on L1210 leukemia ip in BDF1 mice, survival T/C: Cc1ccc(C)c(NC(=O)N(CC(O)c2ccccc2)C2CCCCC2)c1 (stereo not drawn)
[out] 96 % of control

[in] State its T/C on L1210 leukemia ip in BDF1 mice, survival T/C: CC(C)N(C(=O)Nc1cc([N+](=O)[O-])ccc1F)c1ccccc1
[out] 96 % of control

[in] State its T/C on L1210 leukemia ip in BDF1 mice, survival T/C: C=CCNCC(O)c1ccccc1 (stereo not drawn)
[out] 95 % of control

[in] State its T/C on L1210 leukemia ip in BDF1 mice, survival T/C: COc1cc(NS(=O)(=O)c2ccccc2)ccc1C
[out] 97 % of control

[in] State its T/C on L1210 leukemia ip in BDF1 mice, survival T/C: C(=C/c1ccccc1)/C=N/Nc1ccccc1
[out] 98 % of control

[in] State its T/C on L1210 leukemia ip in BDF1 mice, survival T/C: CN1OCC2CCCC(c3ccccc3)C21 (stereo not drawn)
[out] 97 % of control

[in] State its T/C on L1210 leukemia ip in BDF1 mice, survival T/C: CC(=O)OCCCc1ccccc1
[out] 98 % of control

[in] State its T/C on L1210 leukemia ip in BDF1 mice, survival T/C: COC(=O)C/C(=C\c1ccc(OC)c(OC)c1)C(=O)OC
[out] 91 % of control

[in] State its T/C on L1210 leukemia ip in BDF1 mice, survival T/C: CC1(C)CC(=O)N(c2ccccc2)N1
[out] 94 % of control

----------
Provide the recorded T/C for the entries that follow.
Tested on: L1210 leukemia ip in BDF1 mice, survival T/C
PROTOCOL: NCI In Vivo Anticancer Drug Screen. Data for tumor model L1210 Leukemia (intraperitoneal) in B6D2F1 (BDF1) mice
TEST_SETTINGS: endpoint: mean survival time; dose: 400.0 mg/kg/injection; schedule: Q04DX003 (ip); vehicle: other; higher = longer survival
Inconclusive results and toxic doses are left out.

[in] Bench note: what T/C did CC(C)(O)c1cnc(OCc2ccccc2)nc1OCc1ccccc1 show?
[out] 101 % of control

[in] Bench note: what T/C did CCOC(=O)C(Cc1ccc(OCc2ccccc2)c(OCc2ccccc2)c1)(NC(C)=O)C(=O)OCC show?
[out] 98 % of control

[in] Bench note: what T/C did CCCCOC1CCS(=O)(=O)C1 (configuration not stated) show?
[out] 94 % of control

[in] Bench note: what T/C did O=C(Oc1ccccc1[N+](=O)[O-])c1ccccc1 show?
[out] 93 % of control

[in] Bench note: what T/C did O=S1(=O)C2CCCCC2(N2CCOCC2)C1c1ccccc1 (configuration not stated) show?
[out] 94 % of control

[in] Bench note: what T/C did COC(=O)/C=C/Nc1ccccc1 show?
[out] 94 % of control

[in] Bench note: what T/C did CCOC(=O)CSCCC1CC(=O)N1 (configuration not stated) show?
[out] 107 % of control

----------
Test system: L1210 leukemia ip in BDF1 mice, survival T/C
PROTOCOL: NCI In Vivo Anticancer Drug Screen. Data for tumor model L1210 Leukemia (intraperitoneal) in B6D2F1 (BDF1) mice
TEST_SETTINGS: endpoint: mean survival time; dose: 200.0 mg/kg/injection; schedule: Q04DX003 (ip); vehicle: saline; higher = longer survival
Inconclusive results and toxic doses are left out.
MEASUREMENT_KIND: T/C

[in] Bench note: what T/C did O=C1NCCN1c1ccccn1 show?
[out] 97 % of control

[in] Bench note: what T/C did NC(=O)c1cn(C2OC(CO)C(O)C2O)c2nc(Cl)nc(N)c12 (configuration not stated) show?
[out] 115 % of control

[in] Bench note: what T/C did O=[N+]([O-])c1ccc(N/N=C(/Cl)c2ccccc2)cc1 show?
[out] 96 % of control

[in] Bench note: what T/C did COC(=O)C1(C)CCC(c2ccc(C)cc2)=C(CC(=O)O)C1 (configuration not stated) show?
[out] 96 % of control

[in] Bench note: what T/C did CCN(CC)C(=O)Cn1ccc(NC(C)=O)nc1=O show?
[out] 113 % of control

[in] Bench note: what T/C did O=C1N(CO)C2C(N1CO)N(CO)C(=O)N2CO (configuration not stated) show?
[out] 115 % of control

[in] Bench note: what T/C did COC(=O)/C(C)=C\C=C(/C)C(=O)OC show?
[out] 116 % of control

[in] Bench note: what T/C did O=S(O)OS(=O)O show?
[out] 104 % of control

[in] Bench note: what T/C did CC(C(c1ccc(Br)cc1)c1ccccc1Cl)[N+](=O)[O-] (configuration not stated) show?
[out] 86 % of control

[in] Bench note: what T/C did CC[N+](C)(CC)CCOC(=O)C1C2CC3OC(=O)C1C3C2 (configuration not stated) show?
[out] 112 % of control

[in] Bench note: what T/C did CC(N)CC(C)(C)N (configuration not stated) show?
[out] 90 % of control

[in] Bench note: what T/C did CC1CCCC(C)(CO)O1 (configuration not stated) show?
[out] 97 % of control

[in] Bench note: what T/C did CC1(C)CNC(C(=O)O)C1 (configuration not stated) show?
[out] 95 % of control

[in] Bench note: what T/C did CCC(C(N)=O)N1C(=O)C2C3CCC(C3)C2C1=O (configuration not stated) show?
[out] 107 % of control

[in] Bench note: what T/C did CCOc1ccc(=O)[nH]n1 show?
[out] 101 % of control

[in] Bench note: what T/C did CN(C)CCNS(=O)(=O)N(C)C show?
[out] 100 % of control

[in] Bench note: what T/C did CC(=O)OCC(C)OC(C)=O (configuration not stated) show?
[out] 97 % of control

[in] Bench note: what T/C did Cc1cccc(C)c1NC(=O)NCCCl show?
[out] 97 % of control

[in] Bench note: what T/C did Nc1nc2c(c(-c3ccc(Cl)cc3)n1)CN(CCC(=O)O)C2=O show?
[out] 98 % of control

[in] Bench note: what T/C did Nc1ncc(N)c(N)n1 show?
[out] 117 % of control

[in] Bench note: what T/C did CC(=O)C(C(C)=O)C1C=CC=CC=C1 show?
[out] 122 % of control

[in] Bench note: what T/C did CN(CCN(C)Cc1ccccc1)Cc1ccccc1 show?
[out] 98 % of control

----------
Test system: L1210 leukemia ip in BDF1 mice, survival T/C
PROTOCOL: NCI In Vivo Anticancer Drug Screen. Data for tumor model L1210 Leukemia (intraperitoneal) in B6D2F1 (BDF1) mice
TEST_SETTINGS: endpoint: mean survival time; dose: 100.0 mg/kg/injection; schedule: Q01DX001 (ip); vehicle: saline; higher = longer survival
Toxic doses and inconclusive results are not listed.
MEASUREMENT_KIND: T/C

[in] Bench note: what T/C did COc1ccc(CN2CCCN(Cc3ccc(OC)cc3OC)C2c2cc(Cl)ccc2O)c(OC)c1 show?
[out] 86 % of control

[in] Bench note: what T/C did CN(C)/N=N\c1nc[nH]c1C(=O)NN show?
[out] 101 % of control

[in] Bench note: what T/C did O=S(=O)(CC(Cl)c1ccc(Cl)cc1)c1ccccc1 (centres undefined) show?
[out] 112 % of control

[in] Bench note: what T/C did Cc1ccc(S(=O)NNc2ccccc2)cc1 (centres undefined) show?
[out] 93 % of control

[in] Bench note: what T/C did CCOC(=O)C(NC(C)=O)C(N)=S (centres undefined) show?
[out] 99 % of control

[in] Bench note: what T/C did CCC1(O)C(=O)OCc2c1ccn(Cc1ccc3ccccc3c1)c2=O (centres undefined) show?
[out] 96 % of control

[in] Bench note: what T/C did CC(=O)c1cc2c(Br)cccc2oc1=O show?
[out] 91 % of control

[in] Bench note: what T/C did COC(=O)C1=CO[C@@H](C)[C@@H]2Cn3ccc4c5ccccc5nc-4c3C[C@H]12 show?
[out] 109 % of control

[in] Bench note: what T/C did O=C1c2ccccc2C(=O)C1N=Nc1ccccc1 show?
[out] 100 % of control

[in] Bench note: what T/C did O=C(O)c1cc(=O)c2c(OCC(O)COc3cccc4oc(C(=O)O)cc(=O)c34)cccc2o1 show?
[out] 100 % of control

[in] Bench note: what T/C did ClB(Cl)c1ccc(Br)cc1 show?
[out] 97 % of control

[in] Bench note: what T/C did O=C(/C=C/c1ccccc1)CC(=O)c1ccccc1.O=C(/C=C/c1ccccc1)CC(=O)c1ccccc1.[Cu] show?
[out] 91 % of control

[in] Bench note: what T/C did COc1cccc(N=Nc2ccc(N(C)C)cc2)c1 show?
[out] 95 % of control

[in] Bench note: what T/C did CCN(CC)CCCC(C)Nc1ccnc(/C=C/c2ccc(C(F)(F)F)cc2)c1 (centres undefined) show?
[out] 86 % of control

[in] Bench note: what T/C did COc1cccc(-n2cc(C#N)c3c(C)cc(C)nc32)c1 show?
[out] 87 % of control

[in] Bench note: what T/C did CC(C)(C)C1CCCC(=O)C1 (centres undefined) show?
[out] 89 % of control

[in] Bench note: what T/C did COC(=O)CCN1CCN(c2ccccc2)CC1 show?
[out] 98 % of control

[in] Bench note: what T/C did NCC(=O)c1ccc(O)c(O)c1 show?
[out] 101 % of control

[in] Bench note: what T/C did CCCC(CN(CCN(C)C)Cc1ccccc1)c1ccc(OC)cc1 (centres undefined) show?
[out] 101 % of control

[in] Bench note: what T/C did CCCC(O)(CCC)C(=O)O show?
[out] 94 % of control

[in] Bench note: what T/C did COC1OC(O)C(NC(=O)C(F)(F)F)CC1O (centres undefined) show?
[out] 97 % of control

[in] Bench note: what T/C did Nc1c(S(=O)(=O)O)cc(Nc2cccc(CO)c2)c2c1C(=O)c1ccccc1C2=O show?
[out] 95 % of control

[in] Bench note: what T/C did N=C1N=C(N)CS1 show?
[out] 95 % of control

[in] Bench note: what T/C did Cc1c[n+](=O)c(C)cn1[O-] show?
[out] 97 % of control

[in] Bench note: what T/C did COc1ccc2cc(C(C)=O)ccc2c1 show?
[out] 105 % of control

[in] Bench note: what T/C did O=C1c2ccccc2C(=O)c2c(O)c([N+](=O)[O-])cc([N+](=O)[O-])c21 show?
[out] 98 % of control

[in] Bench note: what T/C did C=CCOC(=S)S show?
[out] 95 % of control

[in] Bench note: what T/C did COC1OC(CO)C(O)C(OC)C1NC(C)=O (centres undefined) show?
[out] 103 % of control

[in] Bench note: what T/C did c1ccc2c(c1)ccc1c3ccncc3ccc21 show?
[out] 101 % of control

[in] Bench note: what T/C did O=c1[nH]c2ccccc2c(=O)o1 show?
[out] 96 % of control

[in] Bench note: what T/C did O=C1C=C(O)c2ccc(=O)[nH]c2C1=O show?
[out] 95 % of control

[in] Bench note: what T/C did O=S(=O)(O)C(I)I show?
[out] 103 % of control

[in] Bench note: what T/C did O=C(CCCC(=O)N/N=C/c1ccccc1O)N/N=C\c1ccccc1O show?
[out] 90 % of control

[in] Bench note: what T/C did O=C(CCCC(=O)NNC(=O)Nc1cccc([N+](=O)[O-])c1)NNC(=O)Nc1cccc([N+](=O)[O-])c1 show?
[out] 102 % of control

[in] Bench note: what T/C did C=C(C(=C)C(=O)O)C(=O)O show?
[out] 101 % of control

[in] Bench note: what T/C did O=C1NC(=O)C(c2ccccc2)(c2ccc(Cl)cc2Cl)N1 (centres undefined) show?
[out] 121 % of control

[in] Bench note: what T/C did O=C(Nc1ccccc1)NS(=O)(=O)CS(=O)(=O)NC(=O)Nc1ccccc1 show?
[out] 104 % of control

[in] Bench note: what T/C did CCCCCC1OC1C/C=C/CCCCCCCC(=O)OCC(COC(=O)CCCCCCC/C=C/CC1OC1CCCCC)OC(=O)CCCCCCC/C=C/CC1OC1CCCCC (centres undefined) show?
[out] 109 % of control

[in] Bench note: what T/C did COc1ccccc1CC=O show?
[out] 102 % of control

[in] Bench note: what T/C did Cc1ccc(N2CCN(CC(O)COc3ccccc3Cl)CC2)cc1 (centres undefined) show?
[out] 95 % of control

[in] Bench note: what T/C did CSCSCC(N)C(=O)O (centres undefined) show?
[out] 94 % of control

[in] Bench note: what T/C did S=c1[nH]c2ccccc2n1CCc1ccncc1 show?
[out] 100 % of control

[in] Bench note: what T/C did S=C=Nc1cccc2c(N=C=S)cccc12 show?
[out] 98 % of control

[in] Bench note: what T/C did CN(C)[C@@H]1C(=O)C(C(N)=O)=C(O)[C@@]2(O)C(=O)C3=C(O)c4c(O)cccc4C[C@H]3C[C@@H]12 show?
[out] 112 % of control

[in] Bench note: what T/C did NS(=O)(=O)c1ccc(NC(=O)c2ccc(C(=O)Nc3ccc(S(N)(=O)=O)cc3)cc2)cc1 show?
[out] 100 % of control

[in] Bench note: what T/C did CC1(C)OC2/C(=N/O)C3COC(O3)C2O1 (centres undefined) show?
[out] 101 % of control

[in] Bench note: what T/C did Nc1nc(N)c(-c2ccc(Cl)cc2)c(/C=C/c2ccc([N+](=O)[O-])cc2)n1 show?
[out] 93 % of control

[in] Bench note: what T/C did O=C(O)c1ccccc1N1C(=O)c2ccccc2C1=O show?
[out] 91 % of control

[in] Bench note: what T/C did CCOC(=O)CC1CCN(C(=O)c2ccccc2)C(Cc2c[nH]c3ccccc23)C1=O (centres undefined) show?
[out] 95 % of control
